Data origin, for the record: the supplement of paper PMC9112550

test system: Escherichia coli TOP10; experiment: shrunken log2 fold change of peptide-encoding DNA abundance (4.5 h post-induction vs induction); higher = less antimicrobial activity (less host growth inhibition); conditions: time post-induction: 4.5 h; library: site-saturation at positions 5, 18, 19, 20;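 further: peptides expressed intracellularly from a pBAD plasmid library in pooled LB shake-flask culture, induced with 0.3% L-arabinose, DNA abundance read by NGS, three biological replicates, DESeq2 with apeglm shrinkage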
Assign Condition met whenever shrunken log2 fold change does not fall below -0.3; assign Condition not met whenever it does.

RRIRERPPRLPRPRPRPMPNPRP Condition met
RRIRNRPPRLPRPRPRPMKLPRP Condition met
RRIRPRPPRLPRPRPRPGGWPRP Condition met
RRIRHRPPRLPRPRPRPQYIPRP Condition not met
RRIRWRPPRLPRPRPRPRGVPRP Condition met
RRIRRRPPRLPRPRPRPCQAPRP Condition met
RRIRYRPPRLPRPRPRPNPLPRP Condition not met
RRIRERPPRLPRPRPRPMFIPRP Condition met
RRIRPRPPRLPRPRPRPQDYPRP Condition met
RRIRCRPPRLPRPRPRPTITPRP Condition not met
RRIRHRPPRLPRPRPRPNRYPRP Condition not met
RRIRWRPPRLPRPRPRPAKTPRP Condition met
RRIRLRPPRLPRPRPRPKHNPRP Condition not met
RRIRNRPPRLPRPRPRPLLAPRP Condition met
RRIRVRPPRLPRPRPRPMMRPRP Condition met
RRIRWRPPRLPRPRPRPAEKPRP Condition met
RRIRWRPPRLPRPRPRPQVCPRP Condition met
RRIRIRPPRLPRPRPRPHLAPRP Condition met
RRIRQRPPRLPRPRPRPRLWPRP Condition met
RRIRIRPPRLPRPRPRPTIKPRP Condition not met
RRIRGRPPRLPRPRPRPHKYPRP Condition met
RRIRCRPPRLPRPRPRPLNIPRP Condition not met
RRIRSRPPRLPRPRPRPERMPRP Condition met
RRIRVRPPRLPRPRPRPPKMPRP Condition met
RRIRTRPPRLPRPRPRPVQLPRP Condition met
RRIRGRPPRLPRPRPRPPVDPRP Condition met
RRIRYRPPRLPRPRPRPVFQPRP Condition not met
RRIRSRPPRLPRPRPRPRRSPRP Condition met
RRIRNRPPRLPRPRPRPRNPPRP Condition met
RRIRRRPPRLPRPRPRPRTLPRP Condition met
